Test system: C. tropicalis IBA 171
Test: Antifungal activity: MIC/MFC, disc-diffusion
Format: cell-based
Conditions: Candida tropicalis, IBA171; read-out: MIC
Text: […]
Parameter MIC: see the listing below.
metric: MIC

- C[Si]1(C)OB(O)c2ccc(SC3CC(=O)N(c4ccc(F)cc4)C3=O)c(F)c21 (stereo not shown): > 200 µg/mL
- C[Si]1(C)OB(O)c2cc(F)c(SCCC(=O)Nc3cnccn3)c(F)c21: > 400 µg/mL
- C[Si]1(C)OB(O)c2cc(F)c(SCCC(=O)ON3C(=O)CCC3=O)c(F)c21: > 400 µg/mL
- Cc1cc(NC(=O)CCSc2c(F)cc3c(c2F)[Si](C)(C)OB3O)no1: > 400 µg/mL
- C[Si]1(C)OB(O)c2cc(F)c(SCCC(=O)Nc3ncccn3)c(F)c21: > 400 µg/mL
- C[Si]1(C)OB(O)c2cc(F)c(SCCC#N)c(F)c21: > 400 µg/mL
- C[Si]1(C)OB(O)c2cc(F)c(SCCC(N)=O)c(F)c21: > 400 µg/mL
- C[Si]1(C)OB(O)c2cc(F)c(SCCC(=O)N3CCOCC3)c(F)c21: > 400 µg/mL
- C[Si]1(C)OB(O)c2cc(F)c(SCCS(=O)(=O)c3ccccc3)c(F)c21: > 400 µg/mL
- C[Si]1(C)OB(O)c2ccc(S)c(F)c21: > 100 µg/mL

These data points were gathered from paper PMC11110727.
